Reported Neut IC50 subtype B by item:
system under test: RSV F protein of recombinant mKate-RSV, subtype B (18537) (Respiratory syncytial virus subtype B …, UniProt P13843 26-574)
experimental protocol: cell-based or functional assay
quantity measured: Neut IC50 subtype B (µg/mL)

binder	val
ADI-14446 (antibody, V domains shown, full-length IgG (yeast-expressed); also called Antibody Number 9; Ab# 9) VH: QVQLVQSGAEVKKPGSSVKVSCEASGDTFTSYAVIWVRQTPGQGLEFMGSIIPIFQTINYAPKFQGRVTLSADGSTSTVFMELRNLRSEDTAIYFCATKRYCTSPSCHGLWYFNLWGRGTMVTVSS VL: ETTLTQSPISLSVTPGEPASISCRSSKSLLDSDDGNTYLDWYLQKPGQSPQILIYMLSYRASGVPDRFSGSGSGTDFTLKISRVEAEDVGVYYCMQRIEYPYTFGQGTKVEIK	0.187
ADI-14475 (antibody, V domains shown, full-length IgG (yeast-expressed); also called Antibody Number 37; Ab# 37) VH: QVQLVQSGPALVKPTQTLTLTCTFSGFSLTTARMCVSWIRQPPGKALEWLARIDWDDDKSYSTSLKTRLTIAKDTSKNQVVLTMTNMGPADTATYYCVRTPIYASGGYYLSYFDSWGQGTLVTVSS VL: DIVMTQSPSSLSASVGDSVTITCRASQTIASYVNWYQHKPGQAPNLLIYAASILHSGVPSRFRGGGSGTDFTLTINSLQPEDFATYYCQQSYSTPYTFGQGTKVDIK	0.522
ADI-14525 (antibody, V domains shown, full-length IgG (yeast-expressed); also called Antibody Number 85; Ab# 85) VH: EVQLLESGGGVVQPGRSLRLSCTASGFTFSDHAMYWVRQAPGKGLEWVALISFDGRNIYYADSVKGRFTISRDNSKNTLYLQMNSLRAEDTAVYYCARDQWLVPDYWGQGTLVTVSS VL: QSVLIQPASVSGSPGQSITISCTGTSSDVGGYNYVSWYQQHPGNAPKLMIYEVSKRPSGVPDRFSGFKSGNTASLTVSGLQAEDEADYYCSSYAGSNSVFGTGTQLTVL	0.108
ADI-14523 (antibody, V domains shown, full-length IgG (yeast-expressed); also called Antibody Number 83; Ab# 83) VH: EVQLVESGGGLVKPGGSLRLSCAASGFIFRNAWMSWVRQAPGKGLEWVGRIKRTSEGGSVDYATPVQGRFSISRDDSRNTLYLQMNSLETDDTAVYYCSTGPPYSYFDSSGYSVVDYWGQGTLVTVSS VL: QSVLTQPPSASGTPGQRVTISCSASSSNIGDNYFYWYQQLPGKAPTLLMYGSDQRSSGVPDRFSGSQSGTSASLAISGLRSEDEADYYCAAWDDSLSGPVFGGGTKLTVL	0.151

These entries and their values trace back to patent US20250313612A1.
